What EC50 was measured for each of the following?
Target: KIF2C (Homo sapiens, UniProt Q99661)
Construct: KIF2C (216-598 a.a.); 6xHis (C)
Sequence (Q99661 216-598): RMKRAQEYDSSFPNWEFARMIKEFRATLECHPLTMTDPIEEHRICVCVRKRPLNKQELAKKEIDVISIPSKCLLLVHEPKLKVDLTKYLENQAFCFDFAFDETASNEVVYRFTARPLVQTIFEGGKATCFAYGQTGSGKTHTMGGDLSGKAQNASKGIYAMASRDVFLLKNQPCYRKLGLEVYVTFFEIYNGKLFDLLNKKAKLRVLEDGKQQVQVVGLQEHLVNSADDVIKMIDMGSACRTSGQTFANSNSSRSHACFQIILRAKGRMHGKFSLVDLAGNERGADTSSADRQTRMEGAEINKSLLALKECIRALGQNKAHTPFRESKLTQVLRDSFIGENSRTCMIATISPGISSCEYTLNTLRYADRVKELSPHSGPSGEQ
Assay: In vitro validation: KIF2C kinesin activity, malachite green-based phosphate colorimetric assay
Conditions: concentration that inhibits 50% of KIF2C activity

Entry CC1=C(C(=O)OC(C)C)C(c2ccc(Cl)cc2)n2c(s/c(=C\c3ccc(OCC(=O)NC4CCN(C)CC4)cc3)c2=O)=N1 (stereo not shown) , system KIF2C (Homo sapiens, UniProt Q99661): what EC50 was measured?
> 100 µM

Can you look up EC50 on KIF2C (Homo sapiens, UniProt Q99661) for CCOC(=O)C1=C(C)N=c2s/c(=C\c3ccc(OCC(=O)O)cc3)c(=O)n2[C@H]1c1ccc(Cl)cc1 ?
> 100 µM

Which EC50 is reported with KIF2C (Homo sapiens, UniProt Q99661) for this entry: COC(=O)C1=C(C)N=c2s/c(=C\c3ccc(OCC(=O)O)cc3)c(=O)n2C1c1ccc(Cl)cc1 (stereo not shown) ?
50 to 100 µM

Param readout = EC50; param system = KIF2C (Homo sapiens, UniProt Q99661); param query = CC1=C(C(=O)OC(C)C)C(c2ccc(Cl)cc2)n2c(s/c(=C\c3ccc(OCC(=O)O)cc3)c2=O)=N1 (stereo not shown) [1S0 (1), reference compound] ; response: value
< 10 µM

Test system KIF2C (Homo sapiens, UniProt Q99661); read-out EC50; what value for CC1=C(C(=O)OC(C)C)C(c2ccc(Cl)cc2)n2c(s/c(=C\c3ccc(OCC(=O)N4CCN(C(C)C)CC4)cc3)c2=O)=N1 (stereo not shown) ?
> 100 µM

Hello, I am looking for reported EC50 with KIF2C (Homo sapiens, UniProt Q99661) for CC1=C(C(=O)OC(C)C)C(c2ccc(Cl)cc2)n2c(s/c(=C\c3ccc(OCC(=O)N4CCC(O)CC4)cc3)c2=O)=N1 (stereo not shown) . Could you help?
> 100 µM

// fetch KIF2C (Homo sapiens, UniProt Q99661) EC50 for CC1=C(C(=O)OC(C)C)C(c2ccc(Br)cc2)n2c(s/c(=C\c3ccc(OCC(=O)N4CCN(C)CC4)cc3)c2=O)=N1 (stereo not shown)
50 to 100 µM

====

Biological target: KIF2C (Homo sapiens, UniProt Q99661)
Construct: KIF2C (216-598 a.a.); 6xHis (C)
Assay: In vitro validation: KIF2C kinesin activity, malachite green-based phosphate colorimetric assay
Details: concentration that inhibits 50% of KIF2C activity
pEC50: −log10 of the molar value.
Exercise: for every item that follows, state its recorded pEC50.

What value of pEC50 has been recorded for this entry: CNC(=O)COc1ccc(/C=c2\sc3n(c2=O)C(c2ccc(F)cc2)C(C(=O)OC(C)C)=C(C)N=3)cc1 (centres unmarked)
< 4.00

Given the entry CC1=C(C(=O)OC(C)C)C(c2ccc(Cl)cc2)n2c(s/c(=C\c3ccc(OCc4cnn[nH]4)cc3)c2=O)=N1 (centres unmarked) , report its measured pEC50.
< 4.00

# query: pEC50 of entry CCOC(=O)C1=C(C)N=c2s/c(=C\c3ccc(OCC(=O)O)cc3)c(=O)n2C1c1ccc(Cl)cc1 (centres unmarked)
> 4.70

Which value of pEC50 has been reported for CC1=C(C(=O)OC(C)C)C(c2ccc(Cl)cc2)n2c(s/c(=C\c3ccc4c(c3)OCO4)c2=O)=N1 (centres unmarked) in the records?
< 4.00

Given the entry CC1=C(C(=O)OC(C)(C)C)C(c2ccc(N(C)C)cc2)n2c(s/c(=C\c3ccc(OCC(=O)N4CCC(N5CCN(C)CC5)CC4)cc3)c2=O)=N1 (centres unmarked) , report its measured pEC50.
4.00 to 4.30

Recorded pEC50 of CC1=C(C(=O)OC(C)C)C(c2ccc(Cl)cc2)n2c(s/c(=C\c3ccc(OCC(=O)N4CCC(N5CCN(C)CC5)CC4)cc3)c2=O)=N1 (centres unmarked) , please.
> 4.30

Please give the measured pEC50 for this molecule: CCOC(=O)C1=C(C)N=c2s/c(=C\c3ccc(OCC(=O)OC)cc3)c(=O)n2[C@@H]1c1ccc(Cl)cc1
< 4.00

For the molecule CC1=C(C(=O)OC(C)C)C(c2ccc(Cl)cc2)n2c(s/c(=C\c3ccc(OCC(=O)NS(=O)(=O)C(F)(F)F)cc3)c2=O)=N1 (centres unmarked) , what pEC50 is on record?
< 4.00

For the molecule CC1=C(C(=O)O)C(c2ccc(Cl)cc2)n2c(s/c(=C\c3ccc(OCC(=O)N4CCN(C)CC4)cc3)c2=O)=N1 (centres unmarked) , what pEC50 is on record?
> 4.30

What pEC50 value was documented for this molecule, COC(=O)COc1ccc(/C=c2\sc3n(c2=O)C(c2ccc(Cl)cc2)C(C(=O)OC(C)C)=C(C)N=3)cc1 (centres unmarked) ?
< 4.00

Report pEC50 for CC1=C(C(=O)OC(C)C)C(c2ccc(Cl)cc2)n2c(s/c(=C\c3ccc(OCc4nn[nH]n4)cc3)c2=O)=N1 (centres unmarked) please.
> 4.70

Suppose we examine the molecule CCOC(=O)COc1ccc(/C=c2\sc3n(c2=O)C(c2ccc(Cl)cc2)C(C(=O)OC(C)C)=C(C)N=3)cc1 (centres unmarked) ; what pEC50 value has been reported?
< 4.00

Look up pEC50 for this molecule: CC1=C(C(=O)OC(C)C)C(c2ccc(-n3ccnc3)cc2)n2c(s/c(=C\c3ccc(OCC(=O)N4CCN(C)CC4)cc3)c2=O)=N1 (centres unmarked)
4.00 to 4.30

For CC1=C(C(=O)OC(C)C)C(c2ccc(Cl)cc2)n2c(s/c(=C\c3ccc(OCC(=O)N4CCC(N(C)C)CC4)cc3)c2=O)=N1.O=C(O)/C=C\C(=O)O (centres unmarked) [23S9 (134), maleate] , what is its reported pEC50?
> 4.30

So what does the record say about pEC50 for CCOC(=O)C1=C(C)N=c2s/c(=C\c3ccc(OCC(=O)O)cc3)c(=O)n2[C@@H]1c1ccc(Cl)cc1 ?
4.00 to 4.30

Give its pEC50 value. Item: CCOC(=O)C1=C(C)N=c2s/c(=C\c3ccc(OCC(=O)OC)cc3)c(=O)n2C1c1ccc(Cl)cc1 (centres unmarked)
< 4.00

Which pEC50 value belongs to CC1=C(C(=O)OC(C)C)C(c2ccc(Cl)cc2)n2c(s/c(=C\c3ccc(OCC#N)cc3)c2=O)=N1 (centres unmarked) ?
< 4.00

For COc1ccc(C2C(C(=O)OC(C)C)=C(C)N=c3s/c(=C\c4ccc(OCC(=O)O)cc4)c(=O)n32)cc1 (centres unmarked) , what is its reported pEC50?
> 4.30

What measured pEC50 goes with CC1=C(C(=O)OC(C)C)C(c2ccc(Br)cc2)n2c(s/c(=C\c3ccc(OCC(=O)O)cc3)c2=O)=N1 (centres unmarked) ?
> 4.70

What value of measured pEC50 is listed for CNc1ccc(C2C(C(=O)OC(C)C)=C(C)N=c3s/c(=C\c4ccc(OCC(=O)N5CCN(C)CC5)cc4)c(=O)n32)cc1 (centres unmarked) ?
4.00 to 4.30

I would be grateful if you could share the reported pEC50 for CCOC(=O)C1=C(C)N=c2s/c(=C\c3ccc(OCC(=O)N4CCN(C)CC4)cc3)c(=O)n2C1c1ccc(Cl)cc1 (centres unmarked) .
4.00 to 4.30

Requested field: pEC50. Item: CCC1=C(C(=O)OC(C)C)C(c2ccc(Cl)cc2)n2c(s/c(=C\c3ccc(OCC(=O)N4CCN(C)CC4)cc3)c2=O)=N1 (centres unmarked)
< 4.00

Recorded pEC50 for CCOC(=O)C1=C(C)N=c2s/c(=C\c3ccc(OCC(=O)OC)cc3)c(=O)n2[C@H]1c1ccc(Cl)cc1 , please?
< 4.00

Give its pEC50 value. Item: CC1=C(C(=O)OC(C)(C)C)C(c2ccc(N(C)C)cc2)n2c(s/c(=C\c3ccc(OCC(=O)N4CCN(C)CC4)cc3)c2=O)=N1 (centres unmarked)
4.00 to 4.30

Report pEC50 for CCOC(=O)C1=C(C)N=c2s/c(=C\c3ccc(OCC(=O)N4CCC(N5CCN(C)CC5)CC4)cc3)c(=O)n2C1c1ccc(N(C)C)cc1 (centres unmarked) please.
4.00 to 4.30

Name the reported pEC50 value associated with the molecule CC1=C(C(=O)OCc2ccccc2)C(c2ccc(Cl)cc2)n2c(s/c(=C\c3ccc(OCC(=O)N4CCN(C)CC4)cc3)c2=O)=N1 (centres unmarked)
4.00 to 4.30

====

Would you kindly list pEC50 for each of these compounds?
Biological target: KIF2C (Homo sapiens, UniProt Q99661)
Construct: KIF2C (216-598 a.a.); 6xHis (C)
Assay: In vitro validation: KIF2C kinesin activity, malachite green-based phosphate colorimetric assay
Details: concentration that inhibits 50% of KIF2C activity
pEC50: −log10 of the molar value.

Given CC1=C(C(=O)OC(C)C)C(c2ccc(N(C)C)cc2)n2c(s/c(=C\c3ccc(OCC(=O)O)cc3)c2=O)=N1 (stereo not drawn) [51S0 (55)] , state its recorded pEC50.
4.00 to 4.30

What does the data say about its pEC50? Entry: CC1=C(C(=O)OC(C)C)C(c2ccc(Cl)cc2)n2c(s/c(=C\c3ccc(OCC(=O)N4CCC(N(C)C)CC4)cc3)c2=O)=N1 (stereo not drawn) [Compound 139]
4.00 to 4.30

I am curious: what pEC50 value has been reported for CCOC(=O)C1=C(C)N=c2s/c(=C\c3ccc(OCC(=O)N4CCC(N5CCN(C)CC5)CC4)cc3)c(=O)n2C1c1ccc(Cl)cc1 (stereo not drawn) [50S0 (99)] ?
> 4.30
